# Target Of Assay: T1, human IL-1RAcP on 293T/17-FR cells (human, UniProt Q9NPH3 21-570)
# T1 sequence (looked up): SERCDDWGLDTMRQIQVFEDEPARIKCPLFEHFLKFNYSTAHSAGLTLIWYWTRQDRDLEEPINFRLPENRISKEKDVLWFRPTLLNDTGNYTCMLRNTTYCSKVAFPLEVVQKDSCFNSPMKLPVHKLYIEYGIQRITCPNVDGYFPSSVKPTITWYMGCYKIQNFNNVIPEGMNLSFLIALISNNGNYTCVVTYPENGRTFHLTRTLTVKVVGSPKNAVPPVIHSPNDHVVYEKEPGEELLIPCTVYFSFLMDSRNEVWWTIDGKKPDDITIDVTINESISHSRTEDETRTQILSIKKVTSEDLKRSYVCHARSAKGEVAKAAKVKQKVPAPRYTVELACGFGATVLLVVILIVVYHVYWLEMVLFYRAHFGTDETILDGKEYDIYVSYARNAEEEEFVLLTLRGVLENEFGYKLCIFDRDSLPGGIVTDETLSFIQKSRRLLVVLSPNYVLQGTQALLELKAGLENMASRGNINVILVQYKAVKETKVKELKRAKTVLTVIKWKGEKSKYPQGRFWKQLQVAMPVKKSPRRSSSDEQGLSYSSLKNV
# Measurement Notes: cell-based or functional assay
# maps each entry to its functional reporter gene assay (% inhibition), 0.04 µg/mL mAb
Please provide the amount together with its unit, number first.

The cases that follow already have their functional reporter gene assay (% inhibition), 0.04 µg/mL mAb on record.
Binder	Assay Result
P013.S.01.B.H06 (antibody, V domains shown, rabbit monoclonal antibody; also called P013.A.00086.B03) VH: LEQSGGGGEGGLVKPGGSLELCCKASGFSLSSSYWICWVRQAPGKGLEWIGCIYVGSSGSTYYASWVSGRFTLSRDIDQSTGCLQLNSLTAADTAMYYCARDIYGSTNGYDLWGQGTLVTVSS VL: ALVMTQTPSPVSAAVGGTVTINCQASEDIYSNLAWFQQKPGQPPKLLIYQASKLASGVPSRFSGSGSGTEFTLTISGLQSDDVATYYCLGVGTYISGDGSLDNAFGGGTEVVVK	18%
P013.S.01.B.B02 (antibody, V domains shown, rabbit monoclonal antibody; also called P013.A.00014.B03) VH: LEQSGGGAEGGLVKPGGSLELCCKASGFSLSSSYWICWVRQAPGKGLEWIGCIYTGSSGITYYASWVNGRFTLSRDIDQSTGCLQLNSLTAADTAMYYCAKDGPSTLFNFWGQGTLVTVSS VL: ALVMTQTPSPVSAAVGGTVTINCQASEDIYSNLAWFQQKPGQPPKLLIYRASTLASGVPSRFKGSGSGTEFTLTISGLQSDDAATYYCLGVYTYPSADNAFGGGTEVVVR	75%
P013.S.01.B.E03 (antibody, V domains shown, rabbit monoclonal antibody; also called P013.A.00015.E03) VH: QSLEESGGRLVTPGTPLTLTCTASGFSITNYHISWVRQAPGKGLEWIGYIYAGRDFTYYANWAEGRFTISKTSTTVDLQVTVPTTEDTATYFCARDGGSPNWTLDLWGQGTLVTVSS VL: DVVMTQTPASVSEPVGGTVTINCQASESISDYLSWYQQKPGQPPKLLIYRASTLESGVSSRFKGSGSGTQFTLTISDLESADAATYYCQSNYYDSRGNAFGGGTEVVVK	54%

Input line: For the binder P013.S.01.B.E04 (antibody, V domains shown, rabbit monoclonal antibody; also called P013.A.00109.D07) VH: QSVEESGGRLVTPGTPLTLTCTVSGIDLNSNGINWVRQAPGKGLEWIGYIGAGDITYCASWAKGRFTISKTSSTTVDLKITSLTTEDTATYFCARWGPGALDLWGQGTLVTVSS VL: AQVLTQTASSVSATVGGTVTISCQSSQSVYNNNYLSWYQQKPGQPPKLLIYKASTLASGVPLRFSGSGSGTQFTLTISGVQSDDAATYYCAGFYETTDVGFGGGTEVVVK , give its measured functional reporter gene assay (% inhibition), 0.04 µg/mL mAb value.
Output line: 39%

Input line: For the binder P013.S.01.B.G02 (antibody, V domains shown, rabbit monoclonal antibody; also called P013.A.00085.B11) VH: QSVEESGGRLVTPGTPLTLTCTVSGFSLSSYYMSWVRQAPGKGLEWIGYIYAAGPITYYATWAKGRFTISKTSTTVDLKITSPTTEDTATYFCVRDGSGSGTYGYNGMDLWGPGTLVTVSS VL: AYDMTQTPASVEAAVGGTVNIKCQASQSISNWLAWYQQKPGQRPKLLIYRASTLASGVSSRFKGSGSGTQFTLTISGVESADAATYYCQQGASTTDVDNVFGGGTEVVVK , give its measured functional reporter gene assay (% inhibition), 0.04 µg/mL mAb value.
Output line: 43%
